Recorded measurements of GI50, one per entry
Test system: OVCAR-3
Assay procedure: NCI tumour cell line growth inhibition, 48 h
Active and inactive are the calls of the source. Cut-off read from the data, not from the text of the source: active = GI50 up to about 1.1 µM and inactive = higher.

[[record]]
molecule = "CN1CCCC(C(=O)OCC(=O)C2(O)CCC3C4CCC5=CC(=O)CCC5(C)C4C(O)CC32C)C1 (centres undefined)"
property = "GI50"
experimental_value = "17 µM (inactive)"


# return recorded GI50 for entry "CCN(CC)CCCNC(=O)c1cc2cc(NC(=O)c3cc4cc([N+](=O)[O-])ccc4[nH]3)ccc2[nH]1"
7.89 µM (inactive)

# return recorded GI50 for entry "O=C(O)CCC1(CCC(=O)O)CCCCCCCCC(CCC(=O)O)(CCC(=O)O)C(=O)C1=O"
> 100 µM (inactive)

# return recorded GI50 for entry CCCCCCCCCCCCC/C=C/[C@H]1[C@@H](C(=O)OC)N1[S+]([O-])c1ccc(C)cc1 (some centres undefined)
> 100 µM (inactive)

----------
Test system: MDA-MB-435
Assay procedure: NCI tumour cell line growth inhibition, 48 h
The source made the active and inactive calls. No stated cut-off is given here; in the data, active = GI50 up to about 1.1 µM and inactive = higher.
Select the matching outcome among true = active, false = inactive

Recorded results for 3 compounds are shown here.
[[record]]
compound = "COC1/C=C/C(C)C(C(C)C(OC)C(C)CCC(=O)C(C)C(C/C=C/N(C)C=O)OC)OC(=O)C=CC2OC2(C)CC(OC)C(OC)C2=CC(=O)O[C@@H](C(C)C(OC)CC(OC)/C=C/C(C)C(O)C1)[C@H]2O (some centres undefined)"
system_tested = "MDA-MB-435"
assigned_class = "true"

[[record]]
compound = "COC(=O)c1c[nH]c2c1-c1cc(C(=O)OCc3ccccc3)n(S(=O)(=O)c3ccc(C)cc3)c1C(=O)C2=O"
system_tested = "MDA-MB-435"
assigned_class = "true"

[[record]]
compound = "CC1(C)OC(CCO)CN1C(=O)OCc1ccccc1 (centres undefined)"
system_tested = "MDA-MB-435"
assigned_class = "false"


Write down the call the test reported for this compound. Item: "Cc1ccccc1N/C(N)=N/C#N"
false

----------
System: SF-295
Assay procedure: NCI tumour cell line growth inhibition, 48 h
Active and inactive are the calls of the source. Rule as the data show it: active = GI50 up to about 1.1 µM and inactive = higher.
Recorded measurements of GI50, one per entry

[[record]]
compound = "[O-][n+]1ccccc1S [PYRITHIONE ZINC]"
experimental_value = "4.46 µM (inactive)"

[[record]]
compound = "C[N+](C)(N)c1nc(N)c(C#N)c(C#N)c1C#N"
experimental_value = "> 10 µM (inactive)"

[[record]]
compound = "O=C(O)Cc1cccc2c(=O)c3cccc([N+](=O)[O-])c3[nH]c12"
experimental_value = "> 100 µM (inactive)"


# return recorded GI50 for entry "O=c1[nH]cc(NCCCl)c(=O)[nH]1"
> 100 µM (inactive)

# return recorded GI50 for entry Cc1ccc(C)c(NC(=O)CC/C(=N\NC(=O)C(N)=O)C(C)C(=O)c2ccc(O)cc2)c1 (centres undefined)
> 100 µM (inactive)

----------
Recorded measurements of GI50, one per entry
Test system: SF-295
Assay procedure: NCI tumour cell line growth inhibition, 48 h
Active and inactive are the calls of the source. No stated cut-off is given here; in the data, active = GI50 up to about 1.1 µM and inactive = higher.

Check out these entries, answers already filled in.
[[record]]
compound = "Cc1cccc(Nc2cn(COCc3ccccc3)c(=O)[nH]c2=O)c1"
system_tested = "SF-295"
experimental_value = "72.1 µM (inactive)"

[[record]]
compound = "O=C1Nc2c(Cl)cc(Cl)cc2/C1=N/Nc1ccccc1[N+](=O)[O-]"
system_tested = "SF-295"
experimental_value = "11.7 µM (inactive)"

[[record]]
compound = "COc1ccc2nc3cc(Cl)ccc3c(NCCCNCc3cc(OC)c(OC)c(OC)c3)c2c1"
system_tested = "SF-295"
experimental_value = "1.51 µM (inactive)"


# return recorded GI50 for entry "C#CCOCn1cc(C)c(=O)[nH]c1=O"
> 100 µM (inactive)

# return recorded GI50 for entry "CCN(CC)CCCNC(=O)c1cc2cc(NC(=O)c3cc4cc([N+](=O)[O-])ccc4[nH]3)ccc2[nH]1"
44.3 µM (inactive)

# return recorded GI50 for entry "CCC/C(Cl)=N/OC(=O)Nc1cccc(F)c1"
17.5 µM (inactive)

# return recorded GI50 for entry "CCN1C(=O)/C(=C2\SC(c3ccccc3)(c3ccccc3)c3ccccc32)SC1=S"
24.4 µM (inactive)

# return recorded GI50 for entry CC(=O)OC[C@]1(C(=O)C(O)c2ccoc2)[C@H](C)CC[C@@]23COC(=O)C2=CCC[C@@H]31 (stereo partly specified)
> 10 µM (inactive)

Data provenance is ChEMBL document CHEMBL1201862.
